# System: HOXA9 binding site 5′-ATTTA
# test_description: DNase I footprinting
observation_type: recognition of 5′-ATTTA site in DNase I footprinting

INSERT INTO results (structure_smiles, result) VALUES
  ('N=C(N)c1ccc(-c2ccc(-c3nc4cc(C(=N)N)ccc4o3)o2)cc1', 'failed to recognize'),
  ('N=C(Nc1ccc(-c2ccc(-c3ccc(NC(=N)c4ccccn4)cc3)[nH]2)cc1)c1ccccn1', 'failed to recognize');
